Data provenance is patent US20250332112A1.

# Assay method text: Particle characteristics of LNPs containing EGFP mRNA and novel ionizable lipids
# Format: physicochemical
# Measurement setup: Table 23; EGFP mRNA LNP 1.6:54.6:32.8:10.9
# Experimental: The lipid solution contains 4 components: a PEG-conjugated lipid, an ionizable lipid, cholesterol, and a phospholipid (e.g., DSPC). Lipid stocks were prepared using the lipid identities and molar ratios as described, to achieve a total concentration of ˜7 mg/mL in 100% ethanol. […] Nucleic acid concentration was determined by the RiboGreen assay. Particle size and polydispersity were determined using a Malvern Nano Series Zetasizer. […]
Property: Final Product PDI; scope: individual molecules
Give only the figure.

Previously resolved entries follow.
{"Molecule": "CCCCC/C=C\\CCCC(CCC/C=C\\CCCCC)C(CCC/C=C\\CCCCC)OC(=O)CCCCN(C)C (centres unmarked) [Compound 13-B43, reference compound]", "Final Product PDI": 0.15}
{"Molecule": "CCCCCCCCCCN(C(=O)CCCN(C)C)C(CCCCCCCCC)CCCCC(F)C(=O)OC(CCCCCCC)CCCCCCC (centres unmarked)", "Final Product PDI": 0.13}
{"Molecule": "CCCCCCCCCCN(C(=O)CCCN(C)C)C(CCCCCCCCC)CCCCC(F)C(=O)OCC(CCCCCC)CCCCCCCC (centres unmarked)", "Final Product PDI": 0.15}
{"Molecule": "CCCCCCCCCCN(C(=O)CCCN(C)C)C(CCCCCCCCC)CCCCC(F)C(=O)OC(CCCCCC)CCCCCC (centres unmarked)", "Final Product PDI": 0.10}

Note: attention shifts to another entry.
Identify measured Final Product PDI corresponding to CCCCCCCCCCN(C(=O)CCCN(C)C)C(CCCCCCCCC)CCCCC(F)C(=O)OC(CCCCCCCC)CCCCCCCC (centres unmarked)
0.15

----------
# Assay method text: Particle characteristics of LNPs containing luciferase mRNA and novel ionizable lipids
# Format: physicochemical
# Measurement setup: Table 7; luciferase mRNA LNP 1.6:54.6:32.8:10.9
# Description: The lipid solution contains 4 components: a PEG-conjugated lipid, an ionizable lipid, cholesterol, and a phospholipid (e.g., DSPC). Lipid stocks were prepared using the lipid identities and molar ratios as described, to achieve a total concentration of ˜7 mg/mL in 100% ethanol. […] Nucleic acid concentration was determined by the RiboGreen assay. Particle size and polydispersity were determined using a Malvern Nano Series Zetasizer. […]
Tag: label 1 if measured Final Product Z-avg is not below 70 nm, label 0 if it is.

Solved entries:
{"Molecule": "CCCCCCCCCCC(CCCCCCC(F)(F)C(=O)OCCC(CCCCC)CCCCC)N(CCCCCCCC(=O)OCCC(CCCCC)CCCCC)C(=O)CCCN(C)C (stereo not drawn) [Compound 87]", "Group label": "label 1"}
{"Molecule": "CCCCCCCCCCON(C(=O)CCCN(C)C)C(CCCCCCCCC)CCCCCCC(F)C(=O)OCCC(CCCCC)CCCCC (stereo not drawn) [Compound 38]", "Group label": "label 0"}

Turning now to a further record.
Does the reported Final Product Z-avg for CCCCCCCCCCC(CCCCCCCC(=O)OCCC(CCCCC)CCCCC)N(CCCCCCCC(=O)OCCC(CCCCC)CCCCC)C(=O)CCCCN(C)C (stereo not drawn) [Compound 73] fall at or above the 70 nm mark?
label 1

----------
# Assay method text: Lipid clearance from liver over time after human OTC mRNA LNP (LC-MS)
# Format: in vivo
# Measurement setup: 168 h post-dose; IV 0.5 mg/kg human OTC mRNA LNP, male C57BL/6 mice (n = 4)
Recorded metric: Parent ionizable lipid remaining in liver, Average (nmol/g liver)
Your answer should be a plain number; it is taken to be in nmol/g liver.

Identify measured Parent ionizable lipid remaining in liver, Average corresponding to CCCCCCCCCCC(CCCCCCC(=O)OCCC(CCCCC)CCCCC)N(CCCCCCCC(=O)OCCC(CCCCC)CCCCC)C(=O)CCCN(C)C (centres unmarked)
0.72

Identify measured Parent ionizable lipid remaining in liver, Average corresponding to CCCCCCCCCCON(C(=O)CCCN(C)C)C(CCCCCCCCCC)CCCCCCC(=O)OCCC(CCCCC)CCCCC (centres unmarked)
0.19

Identify measured Parent ionizable lipid remaining in liver, Average corresponding to CCCCCCCCCCN(C(=O)CCCN(C)C)C(CCCCCCCCC)CCCCCCC(F)(F)C(=O)OCCC(CCCCCC)CCCCCC (centres unmarked)
0.04

Identify measured Parent ionizable lipid remaining in liver, Average corresponding to CCCCCCCCCCC(CCCCCCC(=O)OCC(CCCCCC)CCCCCCCC)N(CCCCCCC(F)(F)C(=O)OCC(CCCCCC)CCCCCCCC)C(=O)CCCN(C)C (centres unmarked)
6.22

Identify measured Parent ionizable lipid remaining in liver, Average corresponding to CCCCC/C=C\CCCC(CCC/C=C\CCCCC)C(CCC/C=C\CCCCC)OC(=O)CCCCN(C)C (centres unmarked) [Compound 13-B43, reference compound]
34.42

----------
Property: Parent ionizable lipid remaining in liver, Average; scope: individual compounds
# Assay method text: Lipid clearance from liver over time after human OTC mRNA LNP (LC-MS)
# Format: in vivo
# Measurement setup: 6 h post-dose; IV 0.5 mg/kg human OTC mRNA LNP, male C57BL/6 mice (n = 4)
Your answer should be a plain number; it is taken to be in nmol/g liver.

{"Compound": "CCCCCCCCCCON(C(=O)CCCN(C)C)C(CCCCCCCCCC)CCCCCCC(=O)OCCC(CCCCC)CCCCC (centres unmarked)", "Reported result": 24.19}

Identify measured Parent ionizable lipid remaining in liver, Average corresponding to CCCCCCCCCCC(CCCCCCC(=O)OCCC(CCCCC)CCCCC)N(CCCCCCCC(=O)OCCC(CCCCC)CCCCC)C(=O)CCCN(C)C (centres unmarked)
10.82

Identify measured Parent ionizable lipid remaining in liver, Average corresponding to CCCCCCCCCCC(CCCCCCC(=O)OCC(CCCCCC)CCCCCCCC)N(CCCCCCC(F)(F)C(=O)OCC(CCCCCC)CCCCCCCC)C(=O)CCCN(C)C (centres unmarked)
86.57

Identify measured Parent ionizable lipid remaining in liver, Average corresponding to CCCCCCCCCCN(C(=O)CCCN(C)C)C(CCCCCCCCC)CCCCCCC(F)(F)C(=O)OCCC(CCCCCC)CCCCCC (centres unmarked)
4.71

Identify measured Parent ionizable lipid remaining in liver, Average corresponding to CCCCC/C=C\CCCC(CCC/C=C\CCCCC)C(CCC/C=C\CCCCC)OC(=O)CCCCN(C)C (centres unmarked) [Compound 13-B43, reference compound]
45.23

----------
# Assay method text: Parent ionizable lipid remaining in liver at 6 h after luciferase mRNA LNP (LC-MS)
# Assay type: in vivo
# Measurement setup: Table 16; 6 h after IV 0.5 mg/kg Luciferase mRNA LNP, female BALB/c mice (n = 4)
# Experimental: Liver tissues were treated with PBS and homogenized with a FastPrep machine, 3 cycles of 5 m/s×15 s. Homogenates from the PBS-treated control animals was pooled and used for standard curve preparation. Samples were extracted into a deep well plate with 250 μL of an internal suitability standard. Plates were centrifuged for 15 min at 4° C. and 2000 rpm. […] Quantitation of the ionizable lipid was by MS/MS against a calibration curve spiked into appropriately matched blank matrix. […]
Recorded metric: Parent ionizable lipid remaining in liver, Average (nmol/g liver)
Your answer should be a plain number; it is taken to be in nmol/g liver.

Previously resolved entries follow.
{"Molecule": "CCCCCCCCCCCCCOC(=O)CCCCC(CCCCCCCCCC)N(CCN(C)C)C(=O)CCCCCCC(=O)OCC(CCCC)CCCCCC (stereo not shown) [Compound 24]", "Reported result": 35.16}
{"Molecule": "CCCCCCCCCCC(CCCCCC(=O)OCC(CCCCCC)CCCCCCCC)N(CCCCCCCCCC)C(=O)CCCCN(C)C (stereo not shown) [Compound 3]", "Reported result": 7.72}
{"Molecule": "CCCCCCCCCCC(CCCCCC(=O)OCC(CCCCCC)CCCCCCCC)N(CCCCCCCCCC)C(=O)CCCN(C)C (stereo not shown) [Compound 4]", "Reported result": 18.97}

Identify measured Parent ionizable lipid remaining in liver, Average corresponding to CCCCC/C=C\CCCC(CCC/C=C\CCCCC)=NNC(=O)CC(CCCCCCCCC)N(CCCN(C)C)C(=O)C(CCCCCC)CCCCCCCC (stereo not shown) [Compound 57]
15.88

Identify measured Parent ionizable lipid remaining in liver, Average corresponding to CCCCCCCCCCC(CCCCC(=O)OCc1cc(CCCCCC)cc(CCCCCC)c1)N(CCCN(C)C)C(=O)C(CCCCCC)CCCCCCCC (stereo not shown) [Compound 62]
20.17

Identify measured Parent ionizable lipid remaining in liver, Average corresponding to CCCCCCCCCCN(C(=O)CCCN(C)C)C(CCCCCCCCC)CC(=O)OCC(CCCCCC)CCCCCCCC (stereo not shown) [Compound 32]
21.66

Identify measured Parent ionizable lipid remaining in liver, Average corresponding to CCCCC/C=C\CCCC(CCC/C=C\CCCCC)NNC(=O)CC(CCCCCCCCC)N(CCCN(C)C)C(=O)CCCCCCCCC (stereo not shown) [Compound 59]
22.67
